Recorded values, source patent US20260021103A1.

system under test: IKZF2 (Homo sapiens, UniProt Q96SW2+Q9UKS7)
Construct: expressed in transfected cells; host or cells: HEK293T (lentiviral transduction, puromycin selection, FACS sorting)
Sequence (Q9UKS7 whole entry): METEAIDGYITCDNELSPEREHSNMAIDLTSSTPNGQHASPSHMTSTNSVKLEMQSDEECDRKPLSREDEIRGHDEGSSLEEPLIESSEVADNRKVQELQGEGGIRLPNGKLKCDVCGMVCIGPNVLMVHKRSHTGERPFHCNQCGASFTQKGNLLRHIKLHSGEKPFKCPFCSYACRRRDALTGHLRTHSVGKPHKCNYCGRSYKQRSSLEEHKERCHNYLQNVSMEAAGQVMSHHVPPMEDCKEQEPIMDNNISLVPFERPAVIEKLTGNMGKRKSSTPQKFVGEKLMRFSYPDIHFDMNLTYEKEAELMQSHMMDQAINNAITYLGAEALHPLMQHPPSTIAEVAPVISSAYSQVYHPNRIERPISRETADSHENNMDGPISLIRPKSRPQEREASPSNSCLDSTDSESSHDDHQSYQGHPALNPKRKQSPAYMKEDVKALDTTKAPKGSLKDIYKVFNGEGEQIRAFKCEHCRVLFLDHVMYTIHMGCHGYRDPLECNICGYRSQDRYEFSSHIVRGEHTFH
Sequence (Q96SW2 whole entry): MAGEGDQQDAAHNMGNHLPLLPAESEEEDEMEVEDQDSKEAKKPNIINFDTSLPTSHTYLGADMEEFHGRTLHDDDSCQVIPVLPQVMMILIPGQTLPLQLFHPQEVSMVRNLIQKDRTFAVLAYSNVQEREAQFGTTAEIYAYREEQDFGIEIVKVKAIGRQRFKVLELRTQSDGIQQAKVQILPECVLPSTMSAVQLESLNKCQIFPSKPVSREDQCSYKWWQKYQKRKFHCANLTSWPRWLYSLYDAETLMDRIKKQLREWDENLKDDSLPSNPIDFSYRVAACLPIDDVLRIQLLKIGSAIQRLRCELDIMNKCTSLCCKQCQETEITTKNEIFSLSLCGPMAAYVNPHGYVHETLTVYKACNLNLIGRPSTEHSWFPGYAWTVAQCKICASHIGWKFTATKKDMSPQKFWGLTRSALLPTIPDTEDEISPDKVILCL
Sequence (Q16531 whole entry partner): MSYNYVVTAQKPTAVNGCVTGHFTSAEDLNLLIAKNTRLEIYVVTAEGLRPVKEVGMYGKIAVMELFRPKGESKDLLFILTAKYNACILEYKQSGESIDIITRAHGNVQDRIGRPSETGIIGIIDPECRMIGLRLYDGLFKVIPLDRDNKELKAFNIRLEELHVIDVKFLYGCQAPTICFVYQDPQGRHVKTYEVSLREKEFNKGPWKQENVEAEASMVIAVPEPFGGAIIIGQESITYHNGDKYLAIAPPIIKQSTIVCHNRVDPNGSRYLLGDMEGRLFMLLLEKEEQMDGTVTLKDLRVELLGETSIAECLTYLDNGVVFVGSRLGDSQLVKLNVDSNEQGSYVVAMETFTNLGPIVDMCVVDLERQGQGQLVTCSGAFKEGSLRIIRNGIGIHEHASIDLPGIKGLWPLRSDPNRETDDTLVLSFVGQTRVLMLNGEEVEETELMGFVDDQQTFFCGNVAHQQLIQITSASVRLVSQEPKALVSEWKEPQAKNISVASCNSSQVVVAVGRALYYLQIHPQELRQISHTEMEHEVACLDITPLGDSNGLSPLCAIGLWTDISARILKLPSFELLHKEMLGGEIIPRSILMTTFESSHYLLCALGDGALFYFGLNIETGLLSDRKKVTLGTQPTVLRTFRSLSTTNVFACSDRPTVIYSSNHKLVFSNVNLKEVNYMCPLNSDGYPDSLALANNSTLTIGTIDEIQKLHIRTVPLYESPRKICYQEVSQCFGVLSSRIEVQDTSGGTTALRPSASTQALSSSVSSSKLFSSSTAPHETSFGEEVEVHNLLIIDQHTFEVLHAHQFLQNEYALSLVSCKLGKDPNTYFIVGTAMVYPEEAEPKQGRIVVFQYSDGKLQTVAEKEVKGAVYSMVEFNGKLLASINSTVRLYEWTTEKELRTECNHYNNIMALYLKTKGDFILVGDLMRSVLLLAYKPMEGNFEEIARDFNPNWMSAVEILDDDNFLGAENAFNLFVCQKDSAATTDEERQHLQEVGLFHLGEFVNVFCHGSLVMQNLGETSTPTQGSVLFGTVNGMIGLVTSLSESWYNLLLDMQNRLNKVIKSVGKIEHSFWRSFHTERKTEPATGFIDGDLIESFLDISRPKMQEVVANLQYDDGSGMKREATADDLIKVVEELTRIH
protocol notes: Flow cytometry for measuring degradation, HEK293T GFP-POI reporter cells (IKZF2)
Assay type: cell-based
test context: 1 μM, 24 h, HEK293T GFP reporter
assay readout: IKZF2% degradation at 1 μM (%)

>>> meas_value("N#Cc1ccc2cc(C(=O)Nc3ccc4c(c3)CN(C3CCC(=O)NC3=O)C4=O)ccc2c1 (stereo not drawn) [DEG-91]")
95.3
>>> meas_value("O=C1CCC(N2Cc3cc(NC(=O)Cc4cccc5ccccc45)ccc3C2=O)C(=O)N1 (stereo not drawn) [DEG-67]")
94.6
>>> meas_value("O=C1CCC(N2Cc3cc(NC(=O)c4cccc(C(=O)c5ccccc5)c4)ccc3C2=O)C(=O)N1 (stereo not drawn) [DEG-51]")
93.9
>>> meas_value("O=C1CCC(N2Cc3cc(NC(=O)C4=Cc5ccc(OC(F)(F)F)cc5OC4)ccc3C2=O)C(=O)N1 (stereo not drawn) [DEG-82]")
93.3
>>> meas_value("COc1ccc2c(c1)C=C(C(=O)Nc1ccc3c(c1)CN(C1CCC(=O)NC1=O)C3=O)CO2 (stereo not drawn) [DEG-78]")
90.3
>>> meas_value("COc1ccc(CCC(=O)Nc2ccc3c(c2)CN(C2CCC(=O)NC2=O)C3=O)cc1 (stereo not drawn) [DEG-57]")
88.6
>>> meas_value("COc1ccc(Oc2ccc(C(=O)Nc3ccc4c(c3)CN(C3CCC(=O)NC3=O)C4=O)cc2)cc1 (stereo not drawn) [DEG-70]")
84.5
>>> meas_value("COc1cccc2c1OCC(C(=O)Nc1ccc3c(c1)CN(C1CCC(=O)NC1=O)C3=O)=C2 (stereo not drawn) [DEG-77]")
94.4
>>> meas_value("O=C1CCC(N2Cc3cc(NC(=O)c4ccc5c(c4)CCCC5)ccc3C2=O)C(=O)N1 (stereo not drawn) [DEG-87]")
89.1
>>> meas_value("CN1C(=O)CCc2cc(C(=O)Nc3ccc4c(c3)CN(C3CCC(=O)NC3=O)C4=O)ccc21 (stereo not drawn) [DEG-97]")
87.1
>>> meas_value("O=C1CCC(N2Cc3cc(NC(=O)c4cccc(Oc5ccccc5)c4)ccc3C2=O)C(=O)N1 (stereo not drawn) [DEG-55]")
91.1
>>> meas_value("O=C1CCC(N2Cc3cc(NC(=O)c4ccc5cc(O)ccc5c4)ccc3C2=O)C(=O)N1 (stereo not drawn) [DEG-90]")
89
>>> meas_value("COc1ccc2c(CC(=O)Nc3ccc4c(c3)CN(C3CCC(=O)NC3=O)C4=O)cccc2c1 (stereo not drawn) [DEG-58]")
95.8
>>> meas_value("Cc1ccc2c(c1)OCC(C(=O)Nc1ccc3c(c1)CN(C1CCC(=O)NC1=O)C3=O)=C2 (stereo not drawn) [DEG-80]")
91.5
>>> meas_value("COc1ccc(Oc2cccc(C(=O)Nc3ccc4c(c3)CN(C3CCC(=O)NC3=O)C4=O)c2)cc1 (stereo not drawn) [DEG-69]")
93.2
>>> meas_value("O=C1CCC(N2Cc3cc(NC(=O)C4=Cc5ccccc5OC4)ccc3C2=O)C(=O)N1 (stereo not drawn) [DEG-52]")
93.8
>>> meas_value("O=C1CCC(N2Cc3cc(NC(=O)Cc4ccc5ccccc5c4)ccc3C2=O)C(=O)N1 (stereo not drawn) [DEG-71]")
88.5
>>> meas_value("COc1cccc2c1C=C(C(=O)Nc1ccc3c(c1)CN(C1CCC(=O)NC1=O)C3=O)CO2 (stereo not drawn) [DEG-79]")
93
